Value source: patent US20250215104A1

test system: T1, human soluble urokinase plasminogen activator receptor (hsuPAR) (human, UniProt Q03405 23-303, limits assumed)
T1 construct: Target antigen of the off-rate screen; also called human suPAR; rhuPAR-His
T1 sequence (Q03405 23-303 limits assumed): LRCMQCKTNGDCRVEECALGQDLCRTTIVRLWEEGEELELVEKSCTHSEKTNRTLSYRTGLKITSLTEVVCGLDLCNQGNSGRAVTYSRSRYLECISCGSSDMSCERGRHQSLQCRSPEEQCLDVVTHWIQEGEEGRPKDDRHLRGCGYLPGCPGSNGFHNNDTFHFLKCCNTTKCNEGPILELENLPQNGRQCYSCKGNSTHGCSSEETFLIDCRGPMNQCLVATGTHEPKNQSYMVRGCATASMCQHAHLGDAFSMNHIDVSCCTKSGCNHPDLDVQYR
experiment description: BLI (Octet) off-rate screen of scFv clones
For each of the binders below, state its koff.
Please state the figure in s⁻¹; there is no need to write the unit.

### Prompt Would you kindly share the measured koff for suPAR_DB03_D07 (scFv, V domains shown, screened as scFv) VH: QVQLVQSGAEVKKPGASVKVSCKASGNTFTNYYVHWVRQAPGQGLEWMGWIDPSNGNTIYDQKFQGRVTMTRDTSTSTVYMELSSLRSEDTAVYYCARGYDVDWFVYWGQGTLVTVSS VL: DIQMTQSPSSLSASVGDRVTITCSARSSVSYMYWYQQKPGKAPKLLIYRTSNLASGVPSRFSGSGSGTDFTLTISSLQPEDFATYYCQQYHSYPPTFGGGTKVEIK ?
### Response 0.00308

### Prompt Would you kindly share the measured koff for suPAR_DB03_B01 (scFv, V domains shown, screened as scFv) VH: QVQLVQSGAEVKKPGASVKVSCKASGNTFTGHYMQWVRQAPGQGLEWMGWIDHENGNTSYAQKFQGRVTMTRDTSTSTVYMELSSLRSEDTAVYYCARGYDVDWFVYWGQGTLVTVSS VL: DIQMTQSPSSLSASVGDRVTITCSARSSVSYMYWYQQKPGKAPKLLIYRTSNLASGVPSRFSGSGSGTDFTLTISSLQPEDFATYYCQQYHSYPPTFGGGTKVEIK ?
### Response 0.00297

### Prompt Would you kindly share the measured koff for suPAR_DB03_C08 (scFv, V domains shown, screened as scFv) VH: QVQLVQSGAEVKKPGASVKVSCKASGGTFTNYYMHWVRQAPGQGLEWMGWIDHENGSTIYAQKFQGRVTMTRDTSTSTVYMELSSLRSEDTAVYYCARGYDVDWFVYWGQGTLVTVSS VL: DIQMTQSPSSLSASVGDRVTITCSARSSVSYMYWYQQKPGKAPKLLIYRTSSLASGVPSRFSGSGSGTDFTLTISSLQPEDFATYYCQQYHSYPPTFGGGTKVEIK ?
### Response 0.00103

### Prompt Would you kindly share the measured koff for suPAR_DB03_B06 (scFv, V domains shown, screened as scFv) VH: QVQLVQSGAEVKKPGASVKVSCKASGYNITDYYIHWVRQAPGQGLEWMGWIDPENGSTIYDQKFQGRVTMTRDTSTSTVYMELSSLRSEDTAVYYCARGYDVDWFVYWGQGTLVTVSS VL: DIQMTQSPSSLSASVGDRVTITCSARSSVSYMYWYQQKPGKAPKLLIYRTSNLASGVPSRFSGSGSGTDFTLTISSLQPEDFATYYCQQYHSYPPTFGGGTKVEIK ?
### Response 0.00352

### Prompt Would you kindly share the measured koff for suPAR_DB03_C10 (scFv, V domains shown, screened as scFv) VH: QVQLVQSGAEVKKPGASVKVSCKASGYTFTSYYMHWVRQAPGQGLEWMGWIDHEGGSTIYAQKFQGRVTMTRDTSTSTVYMELSSLRSEDTAVYYCASGYDVDWFVYWGQGTLVTVSS VL: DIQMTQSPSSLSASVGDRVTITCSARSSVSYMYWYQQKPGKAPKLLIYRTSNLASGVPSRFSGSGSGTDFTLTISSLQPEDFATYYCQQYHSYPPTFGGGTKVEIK ?
### Response 0.00452

### Prompt Would you kindly share the measured koff for suPAR_DB03_C02 (scFv, V domains shown, screened as scFv) VH: QVQLVQSGAEVKKPGASVKVSCKASGYSFTNYYIHWVRQAPGQGLEWMGWIDHENGNTIYDQKFQGRVTMTRDTSTSTVYMELSSLRSEDTAVYYCARGNDVDWFVYWGQGTLVTVSS VL: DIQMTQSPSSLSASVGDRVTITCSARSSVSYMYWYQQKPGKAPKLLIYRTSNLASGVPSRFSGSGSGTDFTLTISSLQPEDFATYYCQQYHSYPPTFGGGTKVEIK ?
### Response 0.00534

### Prompt Would you kindly share the measured koff for suPAR_DB02_H10 (scFv, V domains shown, screened as scFv) VH: QVQLVQSGAEVKKPGASVKVSCKASGYTFTSYYMHWVRQAPGQGLEWMGWIDHSNGNTIYDQKFQGRVTMTRDTSTSTVYMELSSLRSEDTAVYYCARGYDVDWFVYWGQGTLVTVSS VL: DIQMTQSPSSLSASVGDRVTITCSARQSVSYMYWYQQKPGKAPKLLIYRTSNLASGVPSRFSGSGSGTDFTLTISSLQPEDFATYYCQQYHSYPPTFGGGTKVEIK ?
### Response 0.00344

### Prompt Would you kindly share the measured koff for suPAR_DB03_E02 (scFv, V domains shown, screened as scFv) VH: QVQLVQSGAEVKKPGASVKVSCKASGYNFTGYYIHWVRQAPGQGLEWMGWIDHENGNTIYAQKFQGRVTMTRDTSTSTVYMELSSLRSEDTAVYYCARGYDVDWFVYWGQGTLVTVSS VL: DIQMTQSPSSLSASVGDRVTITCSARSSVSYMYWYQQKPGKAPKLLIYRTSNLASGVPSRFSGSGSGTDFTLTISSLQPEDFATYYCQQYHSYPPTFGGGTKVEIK ?
### Response 0.00358

### Prompt Would you kindly share the measured koff for suPAR_DB03_D06 (scFv, V domains shown, screened as scFv) VH: QVQLVQSGAEVKKPGASVKVSCKASGYSFTNYYMHWVRQAPGQGLEWMGWIDHENGNTSYAQKFQGRVTMTRDTSTSTVYMELSSLRSEDTAVYYCARGYDVDWFVYWGQGTLVTVSS VL: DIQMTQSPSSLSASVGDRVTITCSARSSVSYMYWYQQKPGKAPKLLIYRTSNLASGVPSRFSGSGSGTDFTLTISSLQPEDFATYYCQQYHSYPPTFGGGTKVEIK ?
### Response 0.00295

### Prompt Would you kindly share the measured koff for suPAR_DB02_H08 (scFv, V domains shown, screened as scFv) VH: QVQLVQSGAEVKKPGASVKVSCKASGYTFTGYYIHWVRQAPGQGLEWMGWIDPENGSTIYDQKFQGRVTMTRDTSTSTVYMELSSLRSEDTAVYYCARGYDVDWFVYWGQGTLVTVSS VL: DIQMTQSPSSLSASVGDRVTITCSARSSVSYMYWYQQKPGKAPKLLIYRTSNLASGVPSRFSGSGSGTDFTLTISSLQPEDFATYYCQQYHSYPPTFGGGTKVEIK ?
### Response 0.00485
